Target: Human UII receptor, 6D9 human rhabdomyosarcoma cells (Homo sapiens)
Construct: 6D9: isolated by dilution subcloning of RMS13 cells, ATCC® Number: CRL-2061
Test: Human UII Calcium Mobilization Assay
Conditions: average value, FLIPR TETRA, read-out: Human UII Ca^+ Mobilization Average IC50
Can you tell me IC50 for the items I'm about to list?
Answers are plain numbers, in µM.

The following compounds have reported results that may help.
COc1ccc([C@@H](CCNS(=O)(=O)c2cn(C)c(C)n2)N2C(=O)c3cccc(N4CCN([C@H](C)c5ccccc5)CC4)c3C2=O)cc1OC [Cpd 219] | 1
COc1ccc([C@@H](CCCNC(=O)c2ccoc2)N2C(=O)c3cccc(N4CCN([C@H](C)c5ccccc5)CC4)c3C2=O)cc1OC [Cpd 186] | 0.82

Next compound, IC50 to be filled in.
// query Field: IC50 (Human UII receptor, 6D9 human rhabdomyosarcoma cells (Homo sapiens)). Entry: COc1ccc(C(CCCNS(=O)(=O)c2cnoc2C)N2C(=O)c3cccc(N4CCN([C@H](C)c5ccccc5)CC4)c3C2=O)cc1OC (stereo partly drawn) [Cpd 108]
// result 0.046

----------
Biological target: endogenous human UII receptor (Homo sapiens, UniProt Q9UKP6)
Sequence (Q9UKP6 whole entry): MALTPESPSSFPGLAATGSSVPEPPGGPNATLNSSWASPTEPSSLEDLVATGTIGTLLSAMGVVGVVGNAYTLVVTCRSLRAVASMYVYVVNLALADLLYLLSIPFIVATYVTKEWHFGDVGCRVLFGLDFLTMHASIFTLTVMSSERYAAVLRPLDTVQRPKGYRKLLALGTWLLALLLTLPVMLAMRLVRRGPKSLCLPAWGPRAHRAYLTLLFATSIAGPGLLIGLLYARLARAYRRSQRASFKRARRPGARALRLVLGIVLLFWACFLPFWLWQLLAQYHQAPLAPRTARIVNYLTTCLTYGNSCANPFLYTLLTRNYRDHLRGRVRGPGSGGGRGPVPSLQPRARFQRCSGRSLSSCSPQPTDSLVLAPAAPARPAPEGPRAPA
Assay: Human Radioligand Binding Assay ((^125I)-U-II binding to human skeletal muscle myoblasts)
Use Ki to assign classes; range list: LOW: < 100 nM; MEDIUM: ≥ 100 nM and < 500 nM; HIGH: ≥ 500 nM

See these solved cases before continuing.
COc1ccc([C@@H](CCCNC(=O)c2cn[nH]c2)N2C(=O)c3cccc(N4CCN([C@H](C)c5ccccc5)CC4)c3C2=O)cc1OC [Cpd 190] | LOW
COc1ccc(C(CN)N2C(=O)c3cccc(N4CCN([C@H](C)c5ccccc5)CC4)c3C2=O)cc1OC (some centres unmarked) [Cpd 64] | HIGH
COc1ccc([C@@H](CCCNC(=O)c2ccncc2)N2C(=O)c3cccc(N4CCN([C@H](C)c5ccccc5)CC4)c3C2=O)cc1OC [Cpd 154] | LOW

// query Hi, small favor: classify COc1ccc(CN2C(=O)c3cccc(N4CC5CCC(C4)N5Cc4ccccc4)c3C2=O)cc1OC [Cpd 7] by its Ki when you get a moment.
// result MEDIUM

// query Another molecule: COc1ccc(C(CCCNS(=O)(=O)Cc2ccccc2)N2C(=O)c3cccc(N4CCN([C@H](C)c5ccccc5)CC4)c3C2=O)cc1OC (some centres unmarked) [Cpd 117]
// result LOW

// query Please give the result for COc1ccc(CN2C(=O)c3cccc(N4CCN(Cc5ccccc5)CC4)c3C2=O)cc1OC [Cpd 5] too.
// result HIGH

// query Input COc1ccc([C@@H](CCNC(=O)c2cnoc2C)N2C(=O)c3cccc(N4CCN([C@H](C)c5ccccc5)CC4)c3C2=O)cc1OC [Cpd 217]
// result LOW

// query What about COc1ccc(C(CCCNS(=O)(=O)c2cc(C)oc2C(F)(F)F)N2C(=O)c3cccc(N4CCN([C@H](C)c5ccccc5)CC4)c3C2=O)cc1OC (some centres unmarked) [Cpd 89] ?
// result HIGH

// query // next record COc1ccc(C(CCCNS(=O)(=O)c2c(C)nn(C)c2C)N2C(=O)c3cccc(N4CCN([C@H](C)c5ccccc5)CC4)c3C2=O)cc1OC (some centres unmarked) [Cpd 91]
// result MEDIUM

// query One more molecule: COc1ccc(C(CCCCN)N2C(=O)c3cccc(N4CCN([C@H](C)c5ccccc5)CC4)c3C2=O)cc1OC (some centres unmarked) [Cpd 70]
// result HIGH
